tested on: A. baumannii strain 98-37-09; assay: AK assay 384-well format, Prestwick library screening; type: cell-based, Acinetobacter baumannii; details: Acinetobacter baumannii, 983709, 3 h, 50 μM final drug concentration; planktonic; […]; read-out: AK-based Prestwick Library Screening Results, A. baumannii (fold increase in extracellular AK activity)
Counter-ions that a name gives are not always drawn.
Each record is given yes (1) if its reported fold induction at 50 µM is strictly below 0.9. Records at or above 0.9 are given no (0).

Compound: Nc1ccc(S(=O)(=O)Nc2ccccn2)cc1
Target system: A. baumannii strain 98-37-09
Class name: no (0)
//
Compound: COc1ccc2c(c1)[nH]c1c(C)nccc12 [Harmine hydrochloride]
Target system: A. baumannii strain 98-37-09
Class name: no (0)
//
Compound: COc1ccn(C)c(=O)c1C#N
Target system: A. baumannii strain 98-37-09
Class name: yes (1)
//
Compound: COc1cnc(NS(=O)(=O)c2ccc(N)cc2)nc1
Target system: A. baumannii strain 98-37-09
Class name: no (0)
//
Compound: CC1=CC(=O)C2=C(C)C[C@H](O)[C@@H]3[C@H](OC(=O)[C@H]3C)[C@H]12 [Austricine hydrate]
Target system: A. baumannii strain 98-37-09
Class name: no (0)
//
Compound: C=C[C@]12CN(C)[C@@H]3[C@H]4CO[C@H](C[C@H]41)[C@]1(C(=O)Nc4ccccc41)[C@@H]32
Target system: A. baumannii strain 98-37-09
Class name: yes (1)

* * *

Each entry below carries its recorded fold induction at 50 µM.
test system: A. baumannii strain 98-37-09; experiment: AK assay 384-well format, Prestwick library screening; format: cell-based, Acinetobacter baumannii; conditions: Acinetobacter baumannii, 983709, 3 h; planktonic A. baumannii; 50 μM final drug concentration; cutoff for positive-scoring molecules 3-fold increase; read-out: AK-based Prestwick Library Screening Results, A. baumannii (increase in extracellular AK activity)
Where a name gives a salt, the structure may show the parent alone.

Compound: C[n+]1cccc(C(=O)[O-])c1 [Trigonelline]
fold induction at 50 µM: 0.9

Compound: COc1cc(OC)c(C(=O)CCCN2CCCC2)c(OC)c1 [Buflomedil hydrochloride]
fold induction at 50 µM: 0.7

Compound: O=C(NCCN1CCOCC1)c1ccc(Cl)cc1 [Moclobemide]
fold induction at 50 µM: 0.7

Compound: Cc1cnc(NC(=O)C2=C(O)c3ccccc3S(=O)(=O)N2C)s1 [Meloxicam]
fold induction at 50 µM: 0.9

Compound: N[C@@H](C(=O)N[C@@H]1C(=O)N2C(C(=O)O)=C(Cl)CS[C@H]12)c1ccccc1 [Cefaclor]
fold induction at 50 µM: 1.5

Compound: CN(C)CC/C=C1\c2ccccc2CSc2ccccc21 [Dosulepin hydrochloride]
fold induction at 50 µM: 0.5

Compound: C[C@@H](O)[C@H]1C(=O)N2C(C(=O)O)=C(SCCN=CN)C[C@H]12 [Imipenem]
fold induction at 50 µM: 1.2

* * *

system: A. baumannii strain 98-37-09; assay: AK assay 384-well format, Prestwick library screening; assay type: cell-based, Acinetobacter baumannii; conditions: Acinetobacter baumannii, 983709, 3 h, planktonic A. baumannii; 50 μM final drug concentration; […]; read-out: AK-based Prestwick Library Screening Results, A. baumannii (increase in extracellular AK activity)
Structures can show the parent of a compound that is named as a salt.
Each entry below carries its recorded fold induction at 50 µM.

Compound: COc1ccc2c3c1O[C@H]1C[C@@H](O)C=C[C@@]31CCN(C)C2 [Galanthamine hydrobromide]
fold induction at 50 µM: 0.8

Compound: COc1ccc2c(c1OC)C(=O)O[C@@H]2[C@H]1c2cc3c(cc2CCN1C)OCO3 [Hydrastine hydrochloride]
fold induction at 50 µM: 1

Compound: C[C@H]1CC[C@]2(NC1)O[C@H]1C[C@H]3[C@@H]4CC[C@H]5C[C@@H](O)CC[C@]5(C)[C@H]4CC[C@]3(C)[C@H]1[C@@H]2C [Tomatidine]
fold induction at 50 µM: 0.7

Compound: CN1[C@@H]2CC[C@H]1C[C@@H](OC(=O)C(CO)c1ccccc1)C2 (some centres unmarked) [Atropine sulfate monohydrate]
fold induction at 50 µM: 0.5

Compound: CCN1C[C@]2(COC)[C@H](O)C[C@H](OC)[C@@]34[C@@H]5C[C@@]6(O)[C@H](OC(=O)c7ccccc7)[C@@H]5[C@@](OC(C)=O)([C@@H]([C@H](OC)[C@H]23)[C@@H]14)[C@@H](O)[C@@H]6OC [Aconitine]
fold induction at 50 µM: 0.6

Compound: NCCC(=O)NCCc1c[nH]cn1 [Carcinine]
fold induction at 50 µM: 0.8

Compound: COc1cc2c(c(OC)c1OC)-c1ccc(O)c(=O)cc1C(N)CC2 (centres unmarked) [Trimethylcolchicinic acid]
fold induction at 50 µM: 1

Compound: CC(C)(C)NCC(O)c1cc(Cl)c(N)c(Cl)c1 (centres unmarked) [Clenbuterol hydrochloride]
fold induction at 50 µM: 0.8

Origin of values: patent US10004701B2
